target: Cytochrome P450 2C9 (Homo sapiens, UniProt P11712)
Sequence (P11712 whole entry): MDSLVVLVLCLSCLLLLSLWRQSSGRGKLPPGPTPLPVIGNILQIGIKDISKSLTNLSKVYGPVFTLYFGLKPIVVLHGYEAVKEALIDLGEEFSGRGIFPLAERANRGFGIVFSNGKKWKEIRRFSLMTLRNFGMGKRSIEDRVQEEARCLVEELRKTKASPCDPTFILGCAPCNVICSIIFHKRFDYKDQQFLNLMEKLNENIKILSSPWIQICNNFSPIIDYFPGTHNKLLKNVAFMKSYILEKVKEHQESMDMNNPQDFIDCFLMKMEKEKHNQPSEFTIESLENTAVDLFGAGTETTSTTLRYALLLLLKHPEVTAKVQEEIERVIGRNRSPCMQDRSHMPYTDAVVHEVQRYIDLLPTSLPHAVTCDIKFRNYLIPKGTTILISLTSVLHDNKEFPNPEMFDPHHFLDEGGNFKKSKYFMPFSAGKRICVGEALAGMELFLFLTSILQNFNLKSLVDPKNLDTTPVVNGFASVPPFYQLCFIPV
recorded_endpoint: IC50 (µM)

INSERT INTO results (input_smiles, target, reading) VALUES
  ('Cc1ccc([C@@H](NC(=O)[C@@H](F)c2ccc(Cl)cc2)[C@@H](C)C(=O)O)cc1OCC(C)(C)C#N', 'Cytochrome P450 2C9 (Homo sapiens, UniProt P11712)', 6.2);

---

experiment: Metabolic stability in human liver microsomes assessed as compound remaining at 5 uM measured upto 60 mins
So basically: is remaining at 1 h, 5 µM under 90%? Then yes. Not under? Then no.

INSERT INTO measurements (input_smiles, category_label) VALUES
  ('Cc1ccc(CC(=O)N[C@H](c2ccc(C)c(OCC(C)(C)F)c2)[C@@H](C)C(=O)O)cc1', 'yes'),
  ('Cc1ccc([C@@H](NC(=O)Cc2ccc(Cc3ncccc3C)cc2)[C@@H](C)C(=O)O)cc1.Cl', 'no'),
  ('Cc1ccc([C@@H](NC(=O)Cc2ccc(CC3CC3)cc2)[C@@H](C)C(=O)O)cc1', 'no'),
  ('Cc1ccc(CC(=O)N[C@H](c2ccc(C)c(OCC(C)(C)O)c2)[C@@H](C)C(=O)O)cc1', 'no'),
  ('Cc1ccc(CC(=O)N[C@H](c2ccc(C)c(OCc3ccccc3)c2)[C@@H](C)C(=O)O)cc1', 'yes'),
  ('Cc1ccc([C@@H](NC(=O)Cc2ccc(Cn3ccccc3=O)cc2)[C@@H](C)C(=O)O)cc1', 'no'),
  ('Cc1ccc([C@@H](NC(=O)Cc2ccc(Cc3ccccn3)cc2)[C@@H](C)C(=O)O)cc1.Cl', 'no'),
  ('Cc1ccc([C@@H](NC(=O)Cc2ccc(Cc3ccccc3)cc2)[C@@H](C)C(=O)O)cc1', 'yes'),
  ('Cc1ccc([C@@H](NC(=O)Cc2ccc(Cn3cccn3)cc2)[C@@H](C)C(=O)O)cc1', 'no'),
  ('Cc1ccc(CC(=O)N[C@H](c2ccc(C)c(OCC3(C#N)CC3)c2)[C@@H](C)C(=O)O)cc1', 'yes'),
  ('Cc1ccc([C@@H](NC(=O)Cc2ccc(Cc3ccc(C)cn3)cc2)[C@@H](C)C(=O)O)cc1.Cl', 'no'),
  ('Cc1ccc([C@@H](NC(=O)Cc2ccc(CC3CCCCC3)cc2)[C@@H](C)C(=O)O)cc1', 'yes'),
  ('Cc1ccc(CC(=O)N[C@H](c2ccc(C)c(OCC(C)C)c2)[C@@H](C)C(=O)O)cc1', 'yes'),
  ('CCCOc1cc([C@@H](NC(=O)Cc2ccc(C)cc2)[C@@H](C)C(=O)O)ccc1C', 'yes'),
  ('Cc1ccc(CC(=O)N[C@H](c2ccc(C)c(OCC(C)(C)C#N)c2)[C@@H](C)C(=O)O)cc1', 'yes');
